Where do the numbers come from? From paper PMC3713010.

biological target: Pax6 DNA-binding domain (BD-Pax6) (Mus musculus (B6), UniProt P63015 190-289); experiment: EMSA; 10% glycerol, 20 mM HEPES pH 7.8, 45 mM KCl, 10 mM NaCl, 1 mM EDTA, 1 mM DTT, 0.2 ug/uL BSA, 0.1% NP-40, 50 ng poly-dIdC; 20 ng each GST protein; room temperature 30 min (heterodimers 4 C); 6% PAGE 0.25x TBE; conditions: protein: recombinant; tags: GST (N-terminal, pGEX-6P-1); label: 32P-dCTP fill-in of the 5' (dG)5 overhangs of both strands (Methods; control probes are given with GGG)
Sequence (P63015 190-289): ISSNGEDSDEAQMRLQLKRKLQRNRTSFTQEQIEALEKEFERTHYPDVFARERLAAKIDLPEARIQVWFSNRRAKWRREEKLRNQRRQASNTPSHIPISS
MEASURED METRIC: binding result

The cases that follow already have their binding result on record.
BINDER	binding result
76 (dsDNA) DNA 1: GGGGGCAGGTATGATTGTCCATATTGCTAATAAACCCCCC DNA 2: GGGGGGTTTATTAGCAATATGGACAATCATACCTGCCCCC	binds
37 (dsDNA) DNA 1: GGGGGTTTCATGGTTTGTTAGCTATTCTCTTATCACCCCCC DNA 2: GGGGGGTGATAAGAGAATAGCTAACAAACCATGAAACCCCC	no binding
56 (dsDNA) DNA 1: GGGGGACACTTATACAATAATAGTATTTATTAATAGTATCCCCC DNA 2: GGGGGATACTATTAATAAATACTATTATTGTATAAGTGTCCCCC	binds
72 (dsDNA) DNA 1: GGGGGGTTTGTTTTTTAAGGAACTGTAATGAACAAATGTCAGGACCCCC DNA 2: GGGGGTCCTGACATTTGTTCATTACAGTTCCTTAAAAAACAAACCCCCC	binds

Now for the binder whose binding result we want.
response.value for 98 (dsDNA) DNA 1: GGGGGTTATGAATACAATTCATTATAACCATGGATCCCCC DNA 2: GGGGGATCCATGGTTATAATGAATTGTATTCATAACCCCC (field: binding result) = no binding
